Biological target: T1, human c-Met (Sino Biological) (human, UniProt P08581 25-932, limits assumed)
T1 construct: Analyte in the Biacore assay; also called antigen (c-Met); printed as "human c-Met antibody (Sino Biological, Beijing, China)"
T1 sequence (P08581 25-932 limits assumed): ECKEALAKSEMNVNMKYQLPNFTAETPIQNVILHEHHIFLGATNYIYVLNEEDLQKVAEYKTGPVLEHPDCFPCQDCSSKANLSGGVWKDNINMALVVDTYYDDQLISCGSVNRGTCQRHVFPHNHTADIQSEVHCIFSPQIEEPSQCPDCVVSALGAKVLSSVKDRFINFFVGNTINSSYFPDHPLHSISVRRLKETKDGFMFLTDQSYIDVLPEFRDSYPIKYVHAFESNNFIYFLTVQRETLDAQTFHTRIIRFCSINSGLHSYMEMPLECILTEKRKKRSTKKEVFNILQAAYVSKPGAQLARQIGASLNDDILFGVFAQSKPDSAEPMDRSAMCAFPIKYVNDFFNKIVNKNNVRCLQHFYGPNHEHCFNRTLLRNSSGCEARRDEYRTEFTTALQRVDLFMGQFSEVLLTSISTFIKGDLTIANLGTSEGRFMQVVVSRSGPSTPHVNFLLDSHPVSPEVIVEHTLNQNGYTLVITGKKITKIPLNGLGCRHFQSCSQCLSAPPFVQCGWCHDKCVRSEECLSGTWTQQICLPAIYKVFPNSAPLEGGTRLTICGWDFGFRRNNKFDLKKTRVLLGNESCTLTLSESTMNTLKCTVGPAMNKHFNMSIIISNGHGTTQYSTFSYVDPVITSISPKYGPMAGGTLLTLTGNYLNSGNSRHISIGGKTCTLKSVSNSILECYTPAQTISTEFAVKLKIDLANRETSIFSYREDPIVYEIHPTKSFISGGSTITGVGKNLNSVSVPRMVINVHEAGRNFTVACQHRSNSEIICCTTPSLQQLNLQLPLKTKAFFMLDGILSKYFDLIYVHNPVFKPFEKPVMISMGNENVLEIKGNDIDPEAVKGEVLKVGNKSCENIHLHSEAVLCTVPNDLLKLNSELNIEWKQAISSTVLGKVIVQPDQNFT
Experiment: SPR (Biacore T200), IgG captured on Protein A CM5 chip, c-Met 0.15-2 nM as analyte
Quick list: Kd per entry.

BINDER: VH2/Vk0 (antibody, IgG1, V domains shown, Full IgG1/kappa expressed in HEK 293 EBNA cells) VH: EVQLVQSGAEVKKPGESLKISCKGSGYSFPTHWITWVRQMPGKGLEWMGTIDPTDSYNFYGPSFQGQVTISADKSISTAYLQWSSLKASDTAMYYCARDGNYYDSRGYYYDTFDMWGQGTLVTVSS VL: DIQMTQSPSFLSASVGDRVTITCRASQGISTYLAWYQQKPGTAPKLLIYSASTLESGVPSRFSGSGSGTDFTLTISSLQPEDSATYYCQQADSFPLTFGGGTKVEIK
Kd [nM]: 0.534
--
BINDER: VH5/Vk4 (antibody, IgG1, V domains shown, Full IgG1/kappa expressed in HEK 293 EBNA cells) VH: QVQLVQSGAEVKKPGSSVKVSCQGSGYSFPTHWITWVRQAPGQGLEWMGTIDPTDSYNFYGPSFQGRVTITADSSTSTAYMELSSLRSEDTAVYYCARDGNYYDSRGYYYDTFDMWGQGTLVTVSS VL: EIQMTQSPGTLSLSPGERATLSCRASQGISTYLAWYQQKPGQAPRLLIYSASTLESGVPDRFSGSGSGTDFTLTISRLEPEDFATYYCQQADSFPLTFGGGTKVEIK
Kd [nM]: 0.349
--
BINDER: VH4/Vk0 (antibody, IgG1, V domains shown, Full IgG1/kappa expressed in HEK 293 EBNA cells) VH: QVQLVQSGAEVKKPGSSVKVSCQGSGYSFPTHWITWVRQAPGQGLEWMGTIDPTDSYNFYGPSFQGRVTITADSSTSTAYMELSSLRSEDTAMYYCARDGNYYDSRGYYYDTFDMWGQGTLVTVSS VL: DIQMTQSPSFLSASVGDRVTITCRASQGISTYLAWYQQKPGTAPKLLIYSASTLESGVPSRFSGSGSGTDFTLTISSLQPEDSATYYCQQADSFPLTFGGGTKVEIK
Kd [nM]: 0.395
